- Tested on: HepG2 Srxn1-GFP reporter cells (+30 nM CDDO-Me)
- measurement.description: Srxn1-GFP intensity median modified Z-score relative to plate median; higher = stronger NRF2 / oxidative stress reporter activation, active = hit call of the paper
- test.context: 10 µM; exposure time: 24h
Out of some 2,300 compounds screened, about 330 (14%) showed activity. A selection follows.
assay.endpoint: Srxn1-GFP intensity median modified Z-score

{"columns": ["compound", "readout.value"],
 "data": [
  ["CC(C)CCCC(C)C1CCC2C3CC[C@H]4C[C@H](O)CC[C@]4(C)C3CC[C@]12C (some centres not stated)", -0.325],
  ["CC(C)(C)NCC(O)COc1cccc2c1C[C@H](O)[C@H](O)C2 (some centres not stated)", 0.0394],
  ["CC(=O)Nc1cc2ccccc2oc1=O", 0.241],
  ["COC1=CC(/C=C/c2ccccc2)OC(=O)C1 (configuration not stated)", -0.206],
  ["C#C[C@]1(OC(C)=O)CCC2C3CCC4=CC(=NO)CCC4C3CC[C@@]21CC (some centres not stated)", -0.443],
  ["N=c1[nH]c(=O)[nH]cc1F", 1.2],
  ["CS(=O)(=O)c1ccc([C@H](O)[C@H](CF)NC(=O)C(Cl)Cl)cc1", -0.193],
  ["CC(C)(C)NC(=O)C1CCC2C3CCC4NC(=O)C=C[C@]4(C)C3CC[C@]12C (some centres not stated)", -0.292],
  ["CCC(=O)O[C@H]1[C@H](O[C@@H]2[C@@H](C)[C@H](O[C@H]3C[C@@](C)(OC)[C@@H](O)[C@H](C)O3)C(C)C(=O)O[C@H](CC)[C@@](C)(O)[C@H](O)C(C)C(=O)C(C)C[C@@]2(C)O)O[C@H](C)C[C@@H]1N(C)C (some centres not stated)", 0.128],
  ["Cc1cc(C(=O)NCCCn2cncn2)no1", 1.31],
  ["CCC(CCC(C)[C@H]1CCC2C3CC=C4C[C@@H](OC(C)=O)CC[C@]4(C)C3CC[C@@]21C)C(C)C (some centres not stated)", -0.573],
  ["CC1(C)SC2C(NC(=O)C(C(=O)O)c3ccccc3)C(=O)N2C1C(=O)O (configuration not stated)", 0.114],
  ["CC(=O)Nc1ccc(S(=O)(=O)Nc2ccc(C)cc2)cc1", 0.323],
  ["CN(C)CC/C=C1/c2ccccc2COc2ccccc21", 1.4],
  ["CO[C@@]1(NC(O)=c2sc(=C(C(N)=O)C(=O)O)s2)C(=O)N2C(C(=O)O)=C(CSc3nnnn3C)CSC21 (some centres not stated)", -0.0789],
  ["O=C(O)c1ccccc1C(=O)Nc1ccc(S(=O)(=O)N=c2[nH]ccs2)cc1", 0.584],
  ["Cn1c(O)cc(-c2ccccc2)c1O", -0.502]
]}

###

- Tested on: HepG2 Srxn1-GFP reporter cells (+30 nM CDDO-Me)
- measurement.description: Srxn1-GFP intensity median modified Z-score relative to plate median; higher = stronger NRF2 / oxidative stress reporter activation, active = hit call of the paper
- test.context: 10 µM; exposure time: 24h
In all, about 2,300 compounds went through this assay and about 330 (14%) showed activity. Not all results are given here.
assay.endpoint: Srxn1-GFP intensity median modified Z-score

{"columns": ["compound", "readout.value"],
 "data": [
  ["O=C(Nc1ccccc1Cl)C1=NN(C2CCS(=O)(=O)C2)C(=O)CC1 (configuration not stated)", 1.26],
  ["CN(C)c1cc(NC(=O)CNC(C)(C)C)c(O)c2c1C[C@H]1C[C@H]3[C@H](N(C)C)C(=O)C(C(N)=O)C(=O)[C@@]3(O)C(=O)C1C2=O (some centres not stated)", -0.316],
  ["O=C(O[C@@H]1Cc2c(O)cc(O)cc2O[C@@H]1c1cc(O)c(O)c(O)c1-c1c([C@H]2Oc3cc(O)cc(O)c3C[C@H]2OC(=O)c2cc(O)c(O)c(O)c2)cc(O)c(O)c1O)c1cc(O)c(O)c(O)c1", -0.214],
  ["Cc1nc(=N)c(C[n+]2csc(CCO)c2C)c[nH]1", -0.15],
  ["C=C1c2cccc(O)c2C(=O)C2C(=O)[C@]3(O)C(=O)C(C(N)=O)C(=O)C(N(C)C)[C@@H]3[C@@H](O)[C@H]12 (some centres not stated)", 0.0721],
  ["CCN(CC)CCNC(=O)c1ccc(I)cc1", 0.454],
  ["CO[C@@]1(NC(=O)CSCC#N)C(=O)N2C(C(=O)O)=C(CSc3nnnn3C)CSC21 (some centres not stated)", 1.04]
]}
